tested on: MS2 coat protein; assay: apparent KD of MS2 coat protein; designed switch direction (-1 OFF switch, 1 ON switch): -1; higher = weaker reporter binding; details: input ligand: none
Classes based on apparent KD of MS2 coat protein: low = under 30 nM, moderate = from 30 nM up to 70 nM, high = 70 nM and over

{"columns": ["Primary Sequence", "Target Entity", "Class"],
 "data": [
  ["CUGAUGUGAGGAUAUGUGAUCUGCCUUCUAUGUAGAUGAUCACAGAAGGCACAUGAGGAUCACCCAUGUAGAUC [Ex4 - 3 - 26] (Eterna round: R96, puzzle: Exclusion 4)", "MS2 coat protein", "high"],
  ["GGUGUGAGGCAGGAUAUGCAAUAUGUAAGUAAUGCAGAAGGGUCUACAUGAGGAUCACCCAUGUGUGCGGUAGA [Ex6 #3] (Eterna round: R97, puzzle: Exclusion 6)", "MS2 coat protein", "high"],
  ["AGAUCACAUGAGGAUCACCCAUGUGAGGAUAUCGACUGAACAGCUUCGGCUGUUCAGUCGAGAAGGCACAAUUA [EX1 #41] (Eterna round: R97, puzzle: Exclusion 1)", "MS2 coat protein", "low"],
  ["GUCUUACAUGAGGAUCACCCAUGUGAGGAUAUGGAUUCGCUGGCCGUAGCCAGUGGAUCCAGAAGGCGCAUGAU [JL-ex1-4.04] (Eterna round: R97, puzzle: Exclusion 1)", "MS2 coat protein", "moderate"],
  ["AAUUUGCAAGCGAGAUCCCACAUGAGGAUCACCCAUGUGCUCGUCUUAUAAGGUACUGUGACAAAAGUCACGGUACC [Mat - Sensor, turn-off var - Eli Mod - D95] (Eterna round: R97, puzzle: Sensor, turn-off variant 1)", "MS2 coat protein", "low"],
  ["AACUUGUAAGGAUAUACAUGAGGAUCACCCAUGUGUCCCACGAACCGACAGGUCGUCUGUAGAAGGUGCAACAU [Eternabot (L1) Solution 88] (Eterna round: R97, puzzle: Exclusion 3)", "MS2 coat protein", "low"],
  ["UCACCUGGGUCAGGAUAUAAAGGGUCAGGAAGUUUAGAAGGGACUUAGGACAUGAGGAUCACCCAUGUUGAGAACUCGUUUGUA [Eternabot solution 25] (Eterna round: R96, puzzle: Exclusion NG 1)", "MS2 coat protein", "moderate"],
  ["GUCUUACAUGAGGAUCACCCAUGUGAGGAUAUGGAUUCGCUGGCCGUAGCCAGUGGAUCCAGAAGGCGCGUGAU [JL-ex1-4.20] (Eterna round: R97, puzzle: Exclusion 1)", "MS2 coat protein", "moderate"],
  ["AAUUAAUUAAUUAAUUAAUACAUGAGGAUCACCCAUGUAAUUUAAGAUCCUUAUACAAGCUUUGAUCUCGUCUUAUA [Stov1/5-A1] (Eterna round: R97, puzzle: Sensor, turn-off variant 1)", "MS2 coat protein", "high"],
  ["AAAAAACAUGAGGAUCACCCAUGUGAGGAUAUGCUAAAAAAAUCCGCAUGAAAAAAUAGCAGAAGGCACAUAAA [PK2] (Eterna round: R96, puzzle: Exclusion 1)", "MS2 coat protein", "moderate"],
  ["ACUCGACAUGAGGAUCACCCAUGUGAGGAUAUGGCCUGUAUGGCGUGAGCUGGCUCAGUCAGAAGGCGCGUGGG [salish99_ex1_r4_047] (Eterna round: R97, puzzle: Exclusion 1)", "MS2 coat protein", "high"],
  ["UUAAUUAAUGUCAGGAUAUCUAGAGCCUCGGCUCUAGAGAAGGGACAUGAGGAUCACCCAUGUCACUCUUAAUU [BmEx4/3-C2] (Eterna round: R97, puzzle: Brourd's mod of Exclusion 4)", "MS2 coat protein", "low"],
  ["AGCUGUGGCCAAGGAUAUCUAGCCUUAAAUACCGACGUAUAGUCGGACAUGAGGAUCACCCAUGUGGAGAAGGUGGUCUCAGCA [Eli eng2 - 044] (Eterna round: R96, puzzle: Exclusion NG 2)", "MS2 coat protein", "high"],
  ["GUCCUGGCUUUUCACAGGCACAUGAGGAUCACCCAUGUCGUGGGUAGAUCCCUCCCUGGGAAAUCUGCUCGUCUUAU [Cac Sensor turn off v1 sub12] (Eterna round: R97, puzzle: Sensor, turn-off variant 1)", "MS2 coat protein", "high"],
  ["CCACGACAUGAGGAUCACCCAUGUGAGGAUAUGACCUGAAAAGCGUGAGCAGUUUGUAUCAGAAGGCGCGUAGG [salish99_ex1_r4_067] (Eterna round: R97, puzzle: Exclusion 1)", "MS2 coat protein", "moderate"],
  ["AUCGUGCAGCUUUGCUGUACGAGUACAUGAGGAUCACCCAUGUAGGAUAUGGUACGCAAAGCGUGCUAGAAGGAUAUGAGAUUA [Mat - Exclusion NG 3 - Mod of JL - D96] (Eterna round: R96, puzzle: Exclusion NG 3)", "MS2 coat protein", "low"],
  ["UAACAAAUUGUCAGGAUAUCAAUCCCGGCCCAGAUUGAGAAGGGACAUGAGGAUCACCCAUGUAUGAUUCUCAA [jl-ex4-4.51 ViennaUCT mod] (Eterna round: R97, puzzle: Brourd's mod of Exclusion 4)", "MS2 coat protein", "moderate"],
  ["GAUUGACAUGAGGAUCACCCAUGUGAGGAUAUCGGCUGGACCGUGUUGGCUUCCGUCUCGAGAAGGCGCAUAGG [Exclusion 1 V43] (Eterna round: R96, puzzle: Exclusion 1)", "MS2 coat protein", "low"]
]}
